Test system: SARS-CoV-2
method.description: Antiviral activity against SARS-CoV-2 Omicron BA.5 infected in human A549-hACE2-TMPRSS2 cells assessed as reduction in viral replication pre-incubated with compound followed by viral infection measured after 72 hrs by ELISA assay
Format: functional, organism-based
condition.description: Severe acute respiratory syndrome coronavirus 2, Omicron BA.5, A549-hACE2-TMPRSS2
readout.label: EC50 (nM)
Numbers only, in nM.

Check out these entries, answers already filled in.
smiles.str | EC50, nM
CC(C)C(=O)OC[C@H]1O[C@@](C#N)(c2ccc3c(N)ncnn23)[C@H](O)[C@@H]1O | 1300
N#C[C@@]1(c2ccc3c(N)ncnn23)O[C@H](CO)[C@@H](O)[C@H]1O | 4800

Switching to the query record.
Task: I am curious: what EC50 value has been reported for CCC(CC)COC(=O)[C@H](C)N[P@](=O)(OC[C@H]1O[C@@](C#N)(c2ccc3c(N)ncnn23)[C@H](O)[C@@H]1O)Oc1ccccc1 ?
Output: 110

====

method.description: Lipophilicity, logD of compound
Type: physicochemical
condition.description: octanol/water
readout.label: logD
Answers are plain numbers.

smiles.str | logD
CC(C)C(=O)OC[C@H]1O[C@@](C#N)(c2ccc3c(N)ncnn23)[C@H](OC(=O)C(C)C)[C@@H]1OC(=O)C(C)C | 3.5

Switching to the query record.
Task: I am curious: what logD value has been reported for CC(=O)OC[C@H]1O[C@@](C#N)(c2ccc3c(N)ncnn23)[C@H](OC(C)=O)[C@@H]1OC(C)=O ?
Output: 1.5

====

System: SARS-CoV-2
method.description: Antiviral activity against SARS-CoV-2 Omicron BA.1 infected in human A549-hACE2-TMPRSS2 cells assessed as reduction in viral replication pre-incubated with compound followed by viral infection measured after 72 hrs by ELISA assay
Assay type: functional, organism-based
condition.description: Severe acute respiratory syndrome coronavirus 2, Omicron BA.1, A549-hACE2-TMPRSS2
Task for the reader: assign each of the following molecules its reported EC50.
Give bare numbers, in µM.

Check out these entries, answers already filled in.
smiles.str | tested.system | result.units | EC50
CC(C)C(=O)OC[C@H]1O[C@@](C#N)(c2ccc3c(N)ncnn23)[C@H](O)[C@@H]1O | SARS-CoV-2 | µM | 0.65
CCC(CC)COC(=O)[C@H](C)N[P@](=O)(OC[C@H]1O[C@@](C#N)(c2ccc3c(N)ncnn23)[C@H](O)[C@@H]1O)Oc1ccccc1 | SARS-CoV-2 | µM | 0.04

Switching to the query record.
Task: I am curious: what EC50 value has been reported for N#C[C@@]1(c2ccc3c(N)ncnn23)O[C@H](CO)[C@@H](O)[C@H]1O ?
Output: 2.66

====

method.description: Cytotoxicity against human PC-3 cells assessed as reduction in cell growth measured after 5 days by CellTiter-Glo assay
Type: toxicity, cell-based
condition.description: PC-3 cells, time 5 day
readout.label: CC50 at 120 h (nM)
Numbers only, in nM.

Task: I am curious: what CC50 at 120 h value has been reported for CCC(CC)COC(=O)[C@H](C)N[P@](=O)(OC[C@H]1O[C@@](C#N)(c2ccc3c(N)ncnn23)[C@H](O)[C@@H]1O)Oc1ccccc1 ?
Output: 1400

====

method.description: Cmax in rat assessed as prodrug conversion by measuring (2R,3R,4S,5R)-2-(4-aminopyrrolo[2,1-f][1,2,4]triazin-7-yl)-3,4-dihydroxy-5-(hydroxymethyl)tetrahydrofuran-2-carbonitrile at 6 mg/kg, po measured upto 24 hrs by LC-MS/MS analysis
Assay type: ADME, organism-based
Set-up: dose 6 mg/kg, time < 24 hrs, route po
condition.description: in vivo
readout.label: Cmax (nM)
Numbers only, in nM.

Task: I am curious: what Cmax value has been reported for CC(C)C(=O)OC[C@H]1O[C@@](C#N)(c2ccc3c(N)ncnn23)[C@H](O)[C@@H]1O ?
Output: 2100
